test.details: in vivo
settings: mouse, plasma, iv, 400 nmol/kg

- sample.smiles: "CCCCCC(=O)N[C@H]1CSCc2cc(CSCCNC(=O)CN3CCN(CC(=O)O)CCN(CC(=O)O)CCN(CC(=O)O)CC3)cc(c2)CSC[C@@H](C(=O)O)NC(=O)[C@H](Cc2ccccc2)NC(=O)[C@H](CCC(N)=O)NC(=O)[C@H]([C@@H](C)O)NC(=O)[C@@H]2CCCN2C(=O)[C@@H]2CCCN2C1=O"
  half-life / min: 40

###

test.details: in vitro
settings: rat, plasma
property.measured: remaining at 24 h, 9.8 µM (%)

- sample.smiles: "CCCCCC(=O)N[C@H]1CSCc2cc(CSCCNC(=O)CN3CCN4CCN5CCN(CC3)CC(=O)[O][Lu]([O]C(=O)C4)[O]C(=O)C5)cc(c2)CSC[C@@H](C(=O)O)NC(=O)[C@H](Cc2ccccc2)NC(=O)[C@H](CCC(N)=O)NC(=O)[C@H]([C@@H](C)O)NC(=O)[C@@H]2CCCN2C(=O)[C@@H]2CCCN2C1=O"
  property.measured: "remaining at 24 h, 9.8 µM"
  result: 100
